System: SF-295
test description: NCI tumour cell line growth inhibition, 48 h
The source made the active and inactive calls. No stated cut-off is given here; in the data, active = GI50 up to about 1.1 µM and inactive = higher.
reported property: GI50

Would you please look over these solved cases?
If you can, please state the reported GI50 value of CC(CCCOC(c1ccccc1)(c1ccccc1)c1ccccc1)OC(=O)Nc1ccccc1 (centres undefined) .
12.7 µM (inactive)

If you can, please state the reported GI50 value of `c1ccc2sc(C3(N4CCCCC4)CCCC3)cc2c1` .
11 µM (inactive)

Quick batch: GI50 for everything below.
1. O=C(Nc1ccccc1)Oc1ccccc1C1CCCCC1
2. CC(C)SC1SCC2C(=O)N(C)C3(CC3C)C(=O)OCC(NC(=O)c3nc4ccccc4cc3O)C(=O)NC(C)C(=O)N(C)C1C(=O)N(C)C1(CC1C)C(=O)OCC(NC(=O)c1nc3ccccc3cc1O)C(=O)NC(C)C(=O)N2C (centres undefined)

1. 17.3 µM (inactive)
2. < 0.0001 µM (active)

Quick batch: GI50 for everything below.
1. O=C(/C(=C/c1ccc(Cl)cc1)c1ccccc1)c1ccccc1
2. CC(=O)O[C@@H]1C[C@@]23C[C@@]24CC[C@H](OC2OCC(O)C(O)C2O)C(C)(C)[C@@H]4CC=C3[C@]2(C)C[C@@H]3OC4(C[C@@H](C)[C@@H]3[C@@]12C)OC(O)[C@@]1(C)O[C@@H]41 (some centres undefined)
3. CN1CC2=C(N=C(S)NC2c2ccccc2Cl)/C(=C/c2ccccc2Cl)C1 (centres undefined)
4. CCNC(=O)COc1ccc(Cl)c(C)c1
5. O=C(O)C(NCc1ccccc1)C(NCc1ccccc1)C(=O)O (centres undefined)
6. N#Cc1nsnc1-c1nc(-c2nsnc2C#N)nc(-c2nsnc2C#N)n1
7. COC(=O)[C@]1(c2cc3ccccc3n2S(=O)(=O)c2ccccc2)CC2CN(C(C)=O)C1CC2=O (some centres undefined)
8. COc1ccc(NC(=O)C(=O)NNC(=O)c2sc(NNC(C)=O)nc2C)c([N+](=O)[O-])c1

18.8 µM (inactive)
25.7 µM (inactive)
53.5 µM (inactive)
> 100 µM (inactive)
> 100 µM (inactive)
> 100 µM (inactive)
12.6 µM (inactive)
> 100 µM (inactive)

###

Tested on: OVCAR-8
test description: NCI tumour cell line growth inhibition, 48 h
Calls of active or inactive are those of the source. No stated cut-off is given here; in the data, active = GI50 up to about 1.1 µM and inactive = higher.
reported property: GI50

Would you please look over these solved cases?
Tell me reported GI50 for `CCCCNC(=S)Nc1nc(C(=O)NNC(=S)NCc2ccccc2)cs1` , tested with OVCAR-8.
24.1 µM (inactive)

Tell me reported GI50 for `O=C(/C(=C/c1ccc(Cl)cc1)c1ccccc1)c1ccccc1` , tested with OVCAR-8.
20.3 µM (inactive)

Quick batch: GI50 for everything below.
1. COc1ccc(/C=N\N2CC(=O)N3C4C=CC(CC4)N3C2=O)cc1 (stereo unspecified)
2. O=C(OCc1ccccc1)N1CCNCCNCCN(C(=O)OCc2ccccc2)CCNCC1
3. Cc1ccc2c(O)cc(-c3cc4ccccc4s3)nc2n1
4. Cc1nc2cc3ccccc3cc2[nH]c1=O

1: 58.1 µM (inactive); 2: 17.3 µM (inactive); 3: 30.3 µM (inactive); 4: 70.5 µM (inactive)

###

System: K562
test description: NCI tumour cell line growth inhibition, 48 h
Active and inactive are the calls of the source. No stated cut-off is given here; in the data, active = GI50 up to about 1.1 µM and inactive = higher.
Please state which outcome applies, choosing from y (active), n (inactive)

Recorded call for `Oc1cc(Br)cc2cccnc12` ?
y

###

Test system: MOLT-4
test description: NCI tumour cell line growth inhibition, 48 h
Calls of active or inactive are those of the source. Rule as the data show it: active = GI50 up to about 1.1 µM and inactive = higher.
Please state which outcome applies, choosing from active, inactive

Recorded call for `Clc1ccc(Oc2ccc(/N=C/c3ccc(Cl)cc3Cl)cc2Cl)cc1` ?
inactive

Recorded call for CCC(=O)C(C)C1=Nc2nnc(CCCCCCCc3nnc4n3C(=O)C(C(C)C(=O)CC)=N4)n2C1=O (stereo unspecified) ?
inactive

Recorded call for `COC(=O)Nc1nc2cc(S(=O)(=O)Nc3ccccn3)ccc2[nH]1` ?
inactive

Others:
Recorded call for `CCOC(=O)N1CCNCCN(C(=O)OCC)CCNCC1` ?
inactive

Recorded call for O=C1C(Cl)C2(CC(/C=C/c3cccs3)=NN2c2cccc(S(=O)(=O)O)c2)N1c1nc2ccccc2s1 (stereo unspecified) ?
inactive

Recorded call for N#Cc1cc([N+](=O)[O-])ccc1NC(=O)/C(=N\NC(=O)c1ccncc1)C(c1cnc2ccc([N+](=O)[O-])cc2n1)[N+](=O)[O-] (stereo unspecified) ?
inactive

Recorded call for COc1cc(C(C)c2cc3c(cc2OCCOCCOc2cc4c(cc2C(C)c2cc(OC)c(OC)c(OC)c2)OCO4)OCO3)cc(OC)c1OC (stereo unspecified) ?
inactive

Recorded call for O=C1/C(=C/C=C/c2ccccc2)CCC1CNc1ccccc1 (stereo unspecified) ?
inactive

Recorded call for `Sc1ncc(-c2cncc(-c3cnc(S)nc3)n2)cn1` ?
inactive

Recorded call for CC1C(=O)OCC2=CCN3CCC(OC(=O)C(C)C1(C)O)C23 (stereo unspecified) ?
inactive

Recorded call for OC(C1CCCC1=N/N=C1/CCCC1C(O)(C(F)(F)Cl)C(F)(F)Cl)(C(F)(F)Cl)C(F)(F)Cl (stereo unspecified) ?
inactive

Recorded call for O=C1c2c(c3c4ccccc4n(CC4CO4)c3c3[nH]c4ccccc4c23)C(=O)N1Cc1ccccc1 (stereo unspecified) ?
inactive

Recorded call for `N#Cc1nsnc1-c1nc(-c2nsnc2C#N)nc(-c2nsnc2C#N)n1` ?
inactive

Recorded call for `c1cc2cc(c1)CN1CCNCCN(CCNCC1)Cc1cccc(c1)CN1CCNCCN(CCNCC1)C2` ?
inactive

Recorded call for `Cn1c(-c2ccccc2)cc(-c2ccc3c(c2)OCO3)c1-c1cccs1` ?
inactive

Recorded call for Cc1ccc(O)c(C2=CC3=NNC(=O)C3C(c3cccc(Cl)c3)C2)c1 (stereo unspecified) ?
inactive

Recorded call for `C(=N\c1nc2cc3sc(/N=C/c4cccs4)nc3cc2s1)/c1cccs1` ?
inactive

Recorded call for `Nc1nc(-c2cc(-c3cccc4ccccc34)nc(N)n2)cc(-c2cccc3ccccc23)n1` ?
inactive

Recorded call for `COc1ccc2nc(N/N=C/c3ccc(C)s3)cc(C)c2c1` ?
inactive

###

Would you mind telling me the reported GI50 of each entry?
System: COLO 205
test description: NCI tumour cell line growth inhibition, 48 h
The source made the active and inactive calls. Cut-off read from the data, not from the text of the source: active = GI50 up to about 1.1 µM and inactive = higher.

Would you please look over these solved cases?
If you can, please state the reported GI50 value of `Cn1ncc2ccc3[nH]c4ccccc4c(=O)c3c21` .
26.4 µM (inactive)

If you can, please state the reported GI50 value of COc1cc([C@@H]2c3cc4c(cc3[C@@H](NC(=O)c3ccc(OC(C)=O)cc3)C3COC(=O)[C@@H]32)OCO4)cc(OC)c1O (stereo not given in full) .
10.2 µM (inactive)

If you can, please state the reported GI50 value of `COC(=O)c1cc(NC(=O)Cn2c3ccccc3c3ccccc32)cn1C` .
45 µM (inactive)

Quick batch: GI50 for everything below.
1. C=C1CC/C=C(\C)C(=O)C[C@@H]2[C@@H]1CC2(C)C [BUDDLEDIN C]
2. O=C(/C(=C/c1ccc(Cl)cc1)c1ccccc1)c1ccccc1
3. O=C(OCc1ccccc1)c1ccc(NCc2cc(O)ccc2O)cc1
4. CC(C)=CCC[C@@H](C)C1=C(O)C(=O)C(C)=C(Nc2ccccc2)C1=O
5. CC(C)C(=O)Cc1ccc2ccccc2n1
6. C1CN(C23OC4(N5CCOCC5)C5C6CC(C7C6C4C72)C53)CCO1 (stereo not given)

1: 1.8 µM (inactive); 2: 18.8 µM (inactive); 3: 1.47 µM (inactive); 4: 22.6 µM (inactive); 5: > 100 µM (inactive); 6: > 100 µM (inactive)

If you can, please state the reported GI50 value of `COc1cc2nc(Cl)nc(NS(=O)(=O)c3cc4ccccc4s3)c2cc1OC` .
38.1 µM (inactive)

###

Test system: NCI-H226
test description: NCI tumour cell line growth inhibition, 48 h
The source made the active and inactive calls. No stated cut-off is given here; in the data, active = GI50 up to about 1.1 µM and inactive = higher.
Would you mind telling me the reported GI50 of each entry?

Quick batch: GI50 for everything below.
1. OC1(c2ccc(Cl)cc2)c2ccccc2-c2nc3ccccc3n21 (stereo unspecified)
2. COc1ccc(NC(=O)C(=O)NNC(=O)c2sc(NNC(C)=O)nc2C)c([N+](=O)[O-])c1
3. C1CN(C23OC4(N5CCOCC5)C5C6CC(C7C6C4C72)C53)CCO1 (stereo unspecified)
4. C/C(=N\O)c1cccc(Nc2c3ccccc3nc3occc23)c1
5. CCOc1ccccc1/N=C\c1c2ccccc2cc2ccccc12
6. O=C(O)CSCCc1ccccc1

1. 45.9 µM (inactive)
2. > 100 µM (inactive)
3. > 100 µM (inactive)
4. 14.1 µM (inactive)
5. 46.5 µM (inactive)
6. > 100 µM (inactive)

###

System: SK-MEL-5
test description: NCI tumour cell line growth inhibition, 48 h
Active and inactive are the calls of the source. No stated cut-off is given here; in the data, active = GI50 up to about 1.1 µM and inactive = higher.
reported property: GI50

Would you please look over these solved cases?
If you can, please state the reported GI50 value of `CSC1=Nc2ccccc2-c2nc(-c3ccccc3)cc(-c3ccccc3)c2C1` .
16.6 µM (inactive)

If you can, please state the reported GI50 value of `COc1ccc2[nH]c3c(c2c1)CC(=O)N1CCC[C@H](C1)CC31OCCCO1` .
> 100 µM (inactive)

If you can, please state the reported GI50 value of `c1ccc2c(CNCCCCCCCCCCCCNCc3cccc4ccccc34)cccc2c1` .
1.83 µM (inactive)

Quick batch: GI50 for everything below.
1. N#CC(C#N)=CSc1ccccc1
2. CCCC1(N2C(=O)c3ccc4c5c(ccc(c35)C2=O)N(C2(CCC)CCCCC2)C4=O)CCCCC1

1. 28.5 µM (inactive)
2. > 100 µM (inactive)

meta.source: ChEMBL document CHEMBL1201862
